The reported numbers originate from ChEMBL document CHEMBL4819149.

Recorded MIC for the following compounds
System: Pseudomonas aeruginosa
Experiment: Antibacterial activity against Pseudomonas aeruginosa assessed as bacterial growth inhibition by broth microdilution method
Type: functional
Give just the numeric value; µg/mL need not be written.

Cc1nc(I)cn1C(CO)CS(=O)(=O)c1ccc(N)cc1 (stereo unspecified) = 128
Cc1cn(C(CO)CS(=O)(=O)c2ccc(N)cc2)cn1 (stereo unspecified) = 128
CC(=O)Nc1ccc(S(=O)(=O)CC(CO)n2cc(I)nc2C)cc1 (stereo unspecified) = 256
CCc1nc(I)cn1C(CO)CS(=O)(=O)c1ccc(N)cc1 (stereo unspecified) = 256
Cc1nccn1C(CO)CS(=O)(=O)c1ccc(N)cc1 (stereo unspecified) = 128

Would you kindly look at the next entry?
Give the measured MIC of CCc1nccn1C(CO)CS(=O)(=O)c1ccc(NC(C)=O)cc1 (stereo unspecified) .
256

###

System: Pseudomonas aeruginosa
Test: Antibacterial activity against Pseudomonas aeruginosa assessed as bacterial growth inhibition by broth microdilution method
Format: functional
Reported Endpoint: MIC (µg/mL)
A number alone suffices; assume µg/mL.

Please report the recorded MIC for CC(C)c1nccn1C(CO)CS(=O)(=O)c1ccc(N)cc1 (stereo not drawn) .
256

Could you do the same for CCCc1nccn1C(CO)CS(=O)(=O)c1ccc(NC(C)=O)cc1 (stereo not drawn) , please?
256

Queued: CC(=O)Nc1ccc(S(=O)(=O)CC(CO)n2cnc(Br)c2)cc1 (stereo not drawn)
256

Consider next the molecule CCc1nc(I)cn1C(CO)CS(=O)(=O)c1ccc(NC(C)=O)cc1 (stereo not drawn) in the same way.
256

###

Tested on: Pseudomonas aeruginosa
Assay: Antibacterial activity against Pseudomonas aeruginosa assessed as bacterial growth inhibition by broth microdilution method
Type: functional
Reported Endpoint: MIC (µg/mL)
Supply the numeric figure in µg/mL, leaving out any unit text.

// worked examples, MIC included
CCc1nc(C)cn1C(CO)CS(=O)(=O)c1ccc(N)cc1 (centres undefined) = 128
CC(=O)Nc1ccc(S(=O)(=O)CC(CO)n2ccnc2C(C)C)cc1 (centres undefined) = 256
Nc1ccc(S(=O)(=O)CC(CO)n2cnc(Br)c2)cc1 (centres undefined) = 256
Nc1ccc(S(=O)(=O)CC(CO)n2ccnc2)cc1 (centres undefined) = 256

API: value(readout=MIC, system=Pseudomonas aeruginosa) for record CCc1nc(C)cn1C(CO)CS(=O)(=O)c1ccc(NC(C)=O)cc1 (centres undefined)
128

Then what about the compound CC(=O)Nc1ccc(S(=O)(=O)CC(CO)n2ccnc2)cc1 (centres undefined) ?
128

And the next one, CC(=O)Nc1ccc(S(=O)(=O)CC(CO)n2cnc(I)c2)cc1 (centres undefined) ?
32

What do you have for CCCc1nccn1C(CO)CS(=O)(=O)c1ccc(N)cc1 (centres undefined) ?
256

What about CCc1nccn1C(CO)CS(=O)(=O)c1ccc(N)cc1 (centres undefined) ?
256

Also, CC(=O)Nc1ccc(S(=O)(=O)CC(CO)n2cnc(C)c2)cc1 (centres undefined) please.
128

Next compound up: CCn1cc(C(=O)O)c(=O)c2cc(F)c(N3CCNCC3)cc21
256

Likewise for CC(=O)Nc1ccc(S(=O)(=O)CC(CO)n2ccnc2C)cc1 (centres undefined) ?
128

Can you check Nc1ccc(S(=O)(=O)CC(CO)n2cnc(I)c2)cc1 (centres undefined) next?
256

Ok, now Nc1ccc(S(=O)(=O)Nc2nccs2)cc1
128
